Consider the following MIC values measured on Mucor paraciticus.
Could you give me the number in µg/mL? Just the number is fine.

A selection of reference data follows.
Cc1c(O)c(C=O)c2nc3c(O)ccc(C(=O)NCCCN(C)C)c3nc2c1O: 37
COC(=O)c1ccc(O)c2nc3c(C=NCCN(C)C)c(O)c(C)c(O)c3nc12: 37
Cc1c(O)c(C=NCCN(C)C)c2nc3c(O)ccc(C(=O)NCCN(C)C)c3nc2c1O: 333
CN(C)CCNC(=O)c1ccc(O)c2nc3c(C=O)c(O)cc(O)c3nc12: 333
COC(=O)c1ccc(O)c2nc3c(C=O)c(O)c(C)c(O)c3nc12: 1000
CCN(CC)CCNC(=O)c1ccc(O)c2nc3c(C=O)c(O)c(C)c(O)c3nc12: 111

Switching to the query record.
[ask] What does the data say about its MIC? Entry: `Cc1c(O)c(C=O)c2nc3c(O)ccc(C(=O)O)c3nc2c1O`
[reply] 37

====

Consider the following MIC values measured on Micrococcus luteus.
Could you give me the number in mg/L? Just the number is fine.

[ask] What does the data say about its MIC? Entry: Cc1c(O)c(C=O)c2nc3c(O)ccc(C(=O)NCCN(C)C)c3nc2c1O [Example 8]
[reply] 1000

[ask] Same question for CN(C)CCNC(=O)c1ccc(O)c2nc3c(C=O)c(O)cc(O)c3nc12 [Example 14] please.
[reply] 111

[ask] Same question for Cc1c(O)c(C=O)c2nc3c(O)ccc(C(=O)NCCCN(C)C)c3nc2c1O [Example 18] please.
[reply] 12.3

====

Consider the following MIC values measured on Streptococcus faecalis.
Could you give me the number in µg/mL? Just the number is fine.

A selection of reference data follows.
Cc1c(O)c(C=O)c2nc3c(O)ccc(C(=O)NCCCN(C)C)c3nc2c1O [Example 18]: 37
CCN(CC)CCNC(=O)c1ccc(O)c2nc3c(C=O)c(O)c(C)c(O)c3nc12 [Example 16]: 111
CN(C)CCNC(=O)c1ccc(O)c2nc3c(C=O)c(O)cc(O)c3nc12 [Example 14]: 111
Cc1c(O)c(C=NCCN(C)C)c2nc3c(O)ccc(C(=O)NCCN(C)C)c3nc2c1O [Example 7]: 1000

[ask] What does the data say about its MIC? Entry: Cc1c(O)c(C=O)c2nc3c(O)ccc(C(=O)O)c3nc2c1O [Example 11]
[reply] 111

====

# Tested on: Rhodotorula aurantiaca
measured property: MIC (µg/mL)
Could you give me the number in µg/mL? Just the number is fine.

A selection of reference data follows.
Cc1c(O)c(C=NCCN(C)C)c2nc3c(O)ccc(C(=O)NCCN(C)C)c3nc2c1O: 111
Cc1c(O)c(C=O)c2nc3c(O)ccc(C(=O)NCCCN(C)C)c3nc2c1O: 37
COC(=O)c1ccc(O)c2nc3c(C=NCCN(C)C)c(O)c(C)c(O)c3nc12: 111
Cc1c(O)c(C=O)c2nc3c(O)ccc(C(=O)O)c3nc2c1O: 12.3
CN(C)CCNC(=O)c1ccc(O)c2nc3c(C=O)c(O)cc(O)c3nc12: 37

Switching to the query record.
[ask] What does the data say about its MIC? Entry: `CCN(CC)CCNC(=O)c1ccc(O)c2nc3c(C=O)c(O)c(C)c(O)c3nc12`
[reply] 37

====

Measured MIC, listed per entry for reference.
# Tested on: Streptococcus pyogenes
# experiment description: Microtiter dilution MIC, Streptococcus pyogenes
# Assay type: cell-based
# condition notes: Mueller-Hinton broth, 37° C., 16-24 hours, read-out: Minimal Inhibitory Concentration
Could you give me the number in µg/mL? Just the number is fine.

A selection of reference data follows.
COC(=O)c1ccc(O)c2nc3c(C=O)c(O)c(C)c(O)c3nc12 [Example 3]: 111
CN(C)CCNC(=O)c1ccc(O)c2nc3c(C=O)c(O)cc(O)c3nc12 [Example 14]: 111
COC(=O)c1ccc(O)c2nc3c(C=NCCN(C)C)c(O)c(C)c(O)c3nc12 [Example 5]: 4.1
Cc1c(O)c(C=O)c2nc3c(O)ccc(C(=O)NCCCN(C)C)c3nc2c1O [Example 18]: 37
Cc1c(O)c(C=O)c2nc3c(O)ccc(C(=O)NCCN(C)C)c3nc2c1O [Example 8]: 1000

[ask] What does the data say about its MIC? Entry: Cc1c(O)c(C=NCCN(C)C)c2nc3c(O)ccc(C(=O)NCCN(C)C)c3nc2c1O [Example 7]
[reply] 111

[ask] Same question for CCN(CC)CCNC(=O)c1ccc(O)c2nc3c(C=O)c(O)c(C)c(O)c3nc12 [Example 16] please.
[reply] 37

[ask] Same question for Cc1c(O)c(C=O)c2nc3c(O)ccc(C(=O)O)c3nc2c1O [Example 11] please.
[reply] 111

====

Measured MIC, listed per entry for reference.
# Tested on: Streptococcus faecalis
Could you give me the number in µg/mL? Just the number is fine.

COC(=O)c1ccc(O)c2nc3c(C=NCCN(C)C)c(O)c(C)c(O)c3nc12: 12.3

[ask] Find the measured MIC: item `COC(=O)c1ccc(O)c2nc3c(C=O)c(O)c(C)c(O)c3nc12` , target or system Streptococcus faecalis.
[reply] 1000

====

Consider the following MIC values measured on Micrococcus luteus.
Could you give me the number in µg/mL? Just the number is fine.

Cc1c(O)c(C=O)c2nc3c(O)ccc(C(=O)O)c3nc2c1O: 111

[ask] Find the measured MIC: item `COC(=O)c1ccc(O)c2nc3c(C=O)c(O)c(C)c(O)c3nc12` , target or system Micrococcus luteus.
[reply] 111

[ask] Same question for `Cc1c(O)c(C=NCCN(C)C)c2nc3c(O)ccc(C(=O)NCCN(C)C)c3nc2c1O` please.
[reply] 37

[ask] Same question for `CCN(CC)CCNC(=O)c1ccc(O)c2nc3c(C=O)c(O)c(C)c(O)c3nc12` please.
[reply] 12.3

[ask] Same question for `COC(=O)c1ccc(O)c2nc3c(C=NCCN(C)C)c(O)c(C)c(O)c3nc12` please.
[reply] 4.1

These entries and their values trace back to patent US4738929A.
